System: aqueous kinetic solubility
protocol.text: High Content Assay for Compounds that inhibit the Assembly of the Perinucleolar Compartment: Aqueous Kinetic Solubility

| compound | target.system | solubility |
| --- | --- | --- |
| N=c1c2c(-c3ccccc3)c(-c3ccccc3)n(Cc3ccccc3)c2ncn1C1CCC(O)CC1 (stereo unspecified) | aqueous kinetic solubility | 150 µM |

Data provenance: PubChem BioAssay AID602443
